measurement-target: T1, human GIP receptor (human, UniProt P48546 22-466)
T1 sequence (looked up): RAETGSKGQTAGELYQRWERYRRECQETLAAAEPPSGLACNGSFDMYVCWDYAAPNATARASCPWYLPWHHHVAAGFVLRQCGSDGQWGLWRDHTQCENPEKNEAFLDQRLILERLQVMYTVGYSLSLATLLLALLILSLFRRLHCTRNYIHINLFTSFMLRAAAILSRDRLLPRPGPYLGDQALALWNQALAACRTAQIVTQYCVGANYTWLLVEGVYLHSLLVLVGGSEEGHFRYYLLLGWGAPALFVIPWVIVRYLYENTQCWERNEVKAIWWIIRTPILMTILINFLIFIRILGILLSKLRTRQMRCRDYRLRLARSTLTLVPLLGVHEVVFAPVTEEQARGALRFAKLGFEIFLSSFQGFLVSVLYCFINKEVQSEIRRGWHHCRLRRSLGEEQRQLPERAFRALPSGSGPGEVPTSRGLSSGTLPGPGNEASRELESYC
test-method-notes: cell-based or functional assay
*1 amine or outer side, *2 acyl side, *3 side chain or, on linkers, in order; H or OH if unused. Where no end group is shown, it is not given here. Side-chain parts run from the residue outwards. [ ]: non-standard residue; d: D form. The star is where a group is joined. Decanoyl(10-(4-HOOC-PhO)) = O=C(O)c1ccc(OCCCCCCCCCC(=O)*)cc1; αMePhe(2-F) = C[C@](N)(Cc1ccccc1F)C(=O)O; γGlu = O=C(O)[C@H](CCC(=O)[*:2])N[*:1]; C14 diacid = O=C(O)CCCCCCCCCCCCC(=O)*; αMeY = C[C@](N)(Cc1ccc(O)cc1)C(=O)O; αMeL = CC(C)C[C@](C)(N)C(=O)O; Nle = CCCC[C@H](N)C(=O)O; Orn = NCCC[C@H](N)C(=O)O; AEEA = NCCOCCOCC(=O)O; Aib = CC(C)(N)C(=O)O
measured-property: cAMP EC50 (1.0% HSA) (pM)
Write down the numeric answer in pM and omit the unit.

For this binder ( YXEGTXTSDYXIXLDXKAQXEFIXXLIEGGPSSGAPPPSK (Y-Aib-EGT-αMeF(2F)-TSDY-Aib-I-αMeL-LD-Orn-K((2-[2-(2-Amino-ethoxy)-ethoxy]-acetyl)-(γ-Glu)-(10-(4-carboxyphenoxy)decanoyl))AQ-Aib-EFI-(D-Glu)-αMeY-LIEGGPSSGAPPPSK((2-[2-(2-Amino-ethoxy)-ethoxy]-acetyl)-(γ-Glu)-(10-(4-carboxyphenoxy)decanoyl))-NH2) [Example 374] ), measured cAMP EC50 (1.0% HSA) is 1960

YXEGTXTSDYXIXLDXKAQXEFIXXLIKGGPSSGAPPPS (Y-Aib-EGT-αMeF(2F)-TSDY-Aib-I-αMeL-LD-Orn-K((2-[2-(2-Amino-ethoxy)-ethoxy]-acetyl)2-(10-(4-carboxyphenoxy)decanoyl))AQ-Aib-EFI-(D-Glu)-αMeY-LIK((2-[2-(2-Amino-ethoxy)-ethoxy]-acetyl)2-(10-(4-carboxyphenoxy)decanoyl))GGPSSGAPPPS-NH2) [Example 396] yielded cAMP EC50 (1.0% HSA) of 595

Per the record, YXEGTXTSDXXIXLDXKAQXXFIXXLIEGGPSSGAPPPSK (Y-Aib-EGT-αMeF(2F)-TSD-4Pal-Aib-I-αMeL-LD-Orn-K((2-[2-(2-Amino-ethoxy)-ethoxy]-acetyl)2-(γ-Glu)-CO-(CH2)10-CH3)AQ-Aib-Orn-FI-(D-Glu)-αMeY-LIEGGPSSGAPPPSK((2-[2-(2-Amino-ethoxy)-ethoxy]-acetyl)2-(γ-Glu)-CO-(CH2)10-CH3)-NH2) [Example 418] has cAMP EC50 (1.0% HSA) of 126

cAMP EC50 (1.0% HSA) reading for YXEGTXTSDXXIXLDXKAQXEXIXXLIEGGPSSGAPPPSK (Y-Aib-EGT-αMeF(2F)-TSD-4Pal-Aib-I-αMeL-LD-Orn-K((2-[2-(2-Amino-ethoxy)-ethoxy]-acetyl)3-(Y-Glu)-CO-(CH2)10-CH3)AQ-Aib-E-αMeF-I-(D-Glu)-αMeY-LIEGGPSSGAPPPSK((2-[2-(2-Amino-ethoxy)-ethoxy]-acetyl)3-(γ-Glu)-CO-(CH2)10-CH3)-NH2) [Example 439] : 396

// cAMP EC50 (1.0% HSA) lookup, binder = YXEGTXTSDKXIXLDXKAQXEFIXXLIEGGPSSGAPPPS (Y-Aib-EGT-αMeF(2F)-TSDK((2-[2-(2-Amino-ethoxy)-ethoxy]-acetyl)-(γ-Glu)-CO-(CH2)10-CH3)-Aib-I-αMeL-LD-Orn-K((2-[2-(2-Amino-ethoxy)-ethoxy]-acetyl)-(γ-Glu)-CO-(CH2)10-CH3)AQ-Aib-EFI-(D-Glu)-αMeY-LIEGGPSSGAPPPS-NH2) [Example 425] , result: 875

// field: cAMP EC50 (1.0% HSA); key: Y[Aib]EGT[αMePhe(2-F)]TSDV[Aib]I[αMeL]LD[Orn]K([AEEA-AEEA-γGlu-Decanoyl(10-(4-HOOC-PhO))])AQ[Aib]EFI[dE][αMeY]LIEGGPSSGAPPPSK([AEEA-AEEA-γGlu-Decanoyl(10-(4-HOOC-PhO))])-NH2 [Example 380] ; value = 9230

# binder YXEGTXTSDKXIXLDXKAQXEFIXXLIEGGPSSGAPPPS (Y-Aib-EGT-αMeF(2F)-TSDK((2-[2-(2-Amino-ethoxy)-ethoxy]-acetyl)3-(γ-Glu)-CO-(CH2)10-CH3)-Aib-I-αMeL-LD-Orn-K((2-[2-(2-Amino-ethoxy)-ethoxy]-acetyl)3-(γ-Glu)-CO-(CH2)10-CH3)AQ-Aib-EFI-(D-Glu)-αMeY-LIEGGPSSGAPPPS-NH2) [Example 421] ; its cAMP EC50 (1.0% HSA) = 164

The measured cAMP EC50 (1.0% HSA) associated with YXEGTXTSDYXIXLDXQAQXEFIKXLIKGGPSSGAPPPS (Y-Aib-EGT-αMeF(2F)-TSDY-Aib-I-αMeL-LD-Orn-QAQ-Aib-EFIK((2-[2-(2-Amino-ethoxy)-ethoxy]-acetyl)2-(γ-Glu)-CO-(CH2)12-CO2H)-αMeY-LIK((2-[2-(2-Amino-ethoxy)-ethoxy]-acetyl)2-(γ-Glu)-CO-(CH2)12-CO2H)GGPSSGAPPPS-NH2) [Example 412] reads 1570

Memo: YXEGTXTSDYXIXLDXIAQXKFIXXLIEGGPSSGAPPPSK (Y-Aib-EGT-αMeF(2F)-TSDY-Aib-I-αMeL-LD-Orn-IAQ-Aib-K((2-[2-(2-Amino-ethoxy)-ethoxy]-acetyl)-(γ-Glu)-(10-(4-carboxyphenoxy)decanoyl))FI-(D-Glu)-αMeY-LIEGGPSSGAPPPSK((2-[2-(2-Amino-ethoxy)-ethoxy]-acetyl)-(γ-Glu)-(10-(4-carboxyphenoxy)decanoyl))-NH2) [Example 377] , reported cAMP EC50 (1.0% HSA): 17500

Documented cAMP EC50 (1.0% HSA) of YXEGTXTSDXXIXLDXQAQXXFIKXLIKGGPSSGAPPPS (Y-Aib-EGT-αMeF(2F)-TSD-4Pal-Aib-I-αMeL-LD-Orn-QAQ-Aib-Orn-FIK((2-[2-(2-Amino-ethoxy)-ethoxy]-acetyl)2--Trx-(γ-Glu)-(10-(4-carboxyphenoxy)decanoyl))-αMeY-LIK(((2-[2-(2-Amino-ethoxy)-ethoxy]-acetyl)2--Trx-(γ-Glu)-(10-(4-carboxyphenoxy)decanoyl))GGPSSGAPPPS-NH2)) [Example 471] : 568

Value of measured cAMP EC50 (1.0% HSA) for the entry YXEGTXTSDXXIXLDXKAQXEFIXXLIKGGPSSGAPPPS (Y-Aib-EGT-αMeF(2F)-TSD-4Pal-Aib-I-αMeL-LD-Orn-K((2-[2-(2-Amino-ethoxy)-ethoxy]-acetyl)2-CO-(CH2)12-CO2H)AQ-Aib-EFI-(D-Glu)-αMeY-LIK((2-[2-(2-Amino-ethoxy)-ethoxy]-acetyl)2-CO-(CH2)12-CO2H)GGPSSGAPPPS-NH2) [Example 387] : 278

Noted for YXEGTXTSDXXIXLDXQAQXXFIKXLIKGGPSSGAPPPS (Y-Aib-EGT-αMeF(2F)-TSD-4Pal-Aib-I-αMeL-LD-Orn-QAQ-Aib-Orn-FIK(PEG5-(γ-Glu)-CO-(CH2)12-CO2H)-αMeY-LIK(PEG5-(γ-Glu)-CO-(CH2)12-CO2H)GGPSSGAPPPS-NH2) [Example 467] : its cAMP EC50 (1.0% HSA) reads 350

// cAMP EC50 (1.0% HSA) value for Y[Aib]EGT[αMePhe(2-F)]TSD[Nle]SI[αMeL]LD[Orn]QAQ[Aib][Orn]FIK([AEEA-AEEA-γGlu-C14 diacid])[αMeY]LIK([AEEA-AEEA-γGlu-C14 diacid])GGPSSGAPPPS-NH2 [Example 490] : 976

Entry Y[Aib]EGT[αMePhe(2-F)]TSDV[Aib]I[αMeL]LD[Orn]K([AEEA-AEEA-Decanoyl(10-(4-HOOC-PhO))])AQ[Aib]EFI[dE][αMeY]LIK([AEEA-AEEA-Decanoyl(10-(4-HOOC-PhO))])GGPSSGAPPPS-NH2 [Example 397] , cAMP EC50 (1.0% HSA) reported as 1920

Input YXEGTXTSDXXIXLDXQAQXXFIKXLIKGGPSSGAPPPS (Y-Aib-EGT-αMeF(2F)-TSD-4Pal-Aib-I-αMeL-LD-Orn-QAQ-Aib-Orn-FIK((2-[2-(2-Amino-ethoxy)-ethoxy]-acetyl)-(γ-Glu)-(10-(4-carboxyphenoxy)decanoyl))-αMeY-LIK((2-[2-(2-Amino-ethoxy)-ethoxy]-acetyl)-(γ-Glu)-(10-(4-carboxyphenoxy)decanoyl))GGPSSGAPPPS-NH2) [Example 463] . Output cAMP EC50 (1.0% HSA): 350

For reference, reported cAMP EC50 (1.0% HSA) for Y[Aib]EGT[αMePhe(2-F)]TSDV[Aib]I[αMeL]LD[Orn]K([AEEA-AEEA-γGlu-Decanoyl(10-(4-HOOC-PhO))])AQ[Aib]K([AEEA-AEEA-γGlu-Decanoyl(10-(4-HOOC-PhO))])FI[dE][αMeY]LI[Orn]GGPSSGAPPPS-NH2 [Example 410] stands at 1280

Lab note: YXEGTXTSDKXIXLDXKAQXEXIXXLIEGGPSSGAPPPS (Y-Aib-EGT-αMeF(2F)-TSDK((2-[2-(2-Amino-ethoxy)-ethoxy]-acetyl)3-(γ-Glu)-CO-(CH2)10-CH3)-Aib-I-αMeL-LD-Orn-K((2-[2-(2-Amino-ethoxy)-ethoxy]-acetyl)3-(γ-Glu)-CO-(CH2)10-CH3)AQ-Aib-E-αMeF-I-(D-Glu)-αMeY-LIEGGPSSGAPPPS-NH2) [Example 436] gave cAMP EC50 (1.0% HSA) of 241

For reference, reported cAMP EC50 (1.0% HSA) for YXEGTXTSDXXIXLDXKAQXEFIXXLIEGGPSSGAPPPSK (Y-Aib-EGT-αMeF(2F)-TSD-4Pal-Aib-I-αMeL-LD-Orn-K((2-[2-(2-Amino-ethoxy)-ethoxy]-acetyl)2-(γ-Glu)-CO-(CH2)12-CO2H)AQ-Aib-EFI-(D-Glu)-αMeY-LIEGGPSSGAPPPSK((2-[2-(2-Amino-ethoxy)-ethoxy]-acetyl)2-(γ-Glu)-CO-(CH2)12-CO2H)-NH2) [Example 359] stands at 1580

Note to self: cAMP EC50 (1.0% HSA) recorded for YXEGTXTSDXXIXLDXIAQXXFIKXLIKGGPSSGAPPPS (Y-Aib-EGT-αMeF(2F)-TSD-4Pal-Aib-I-αMeL-LD-Orn-IAQ-Aib-Orn-FIK((2-[2-(2-Amino-ethoxy)-ethoxy]-acetyl)2-(γ-Glu)-(10-(4-carboxyphenoxy)decanoyl))-αMeY-LIK((2-[2-(2-Amino-ethoxy)-ethoxy]-acetyl)2-(γ-Glu)-(10-(4-carboxyphenoxy)decanoyl))GGPSSGAPPPS-NH2) [Example 354] was 857

Form field cAMP EC50 (1.0% HSA), entry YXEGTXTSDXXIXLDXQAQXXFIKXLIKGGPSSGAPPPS (Y-Aib-EGT-αMeF(2F)-TSD-4Pal-Aib-I-αMeL-LD-Orn-QAQ-Aib-Orn-FIK(PEG6-(γ-Glu)-(10-(4-carboxyphenoxy)decanoyl))-αMeY-LIK(PEG6-(γ-Glu)-(10-(4-carboxyphenoxy)decanoyl))GGPSSGAPPPS-NH2) [Example 468] : 222

Query YXEGTXTSDXXIXLDXQAQXKFIXXLIEGGPSSGAPPPSK (Y-Aib-EGT-αMeF(2F)-TSD-4Pal-Aib-I-αMeL-LD-Orn-QAQ-Aib-K((2-[2-(2-Amino-ethoxy)-ethoxy]-acetyl)2-(γ-Glu)-CO-(CH2)12-CO2H)FI-(D-Glu)-αMeY-LIEGGPSSGAPPPSK((2-[2-(2-Amino-ethoxy)-ethoxy]-acetyl)2-(γ-Glu)-CO-(CH2)12-CO2H)-NH2) [Example 489] yields cAMP EC50 (1.0% HSA) of 578

Documented cAMP EC50 (1.0% HSA) of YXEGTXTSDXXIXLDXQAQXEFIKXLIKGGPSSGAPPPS (Y-Aib-EGT-αMeF(2F)-TSD-4Pal-Aib-I-αMeL-LD-Orn-QAQ-Aib-EFIK(2-[2-(2-Amino-ethoxy)-ethoxy]-acetyl)3-(γ-Glu)-(10-(4-carboxyphenoxy)decanoyl)-αMeY-LIK((2-[2-(2-Amino-ethoxy)-ethoxy]-acetyl)3-(γ-Glu)-(10-(4-carboxyphenoxy)decanoyl)GGPSSGAPPPS-NH2)) [Example 464] : 316
